- MEASUREMENT_TARGET: Quinolone resistance protein NorA (Staphylococcus aureus) (UniProt P0A0J7)
- METHOD_DESCRIPTION: Inhibition of NorA in Staphylococcus aureus 1199B assessed as potentiation of ethidium bromide-induced antibacterial activity by measuring ethidium bromide MIC at sub MIC
ASSAY_METRIC: MIC (µg/mL)
Report only the number, with the unit µg/mL understood.

Example entries begin here.
> print(dat)
                                   compound  assay.metric  observed
1  C=CCOc1ccc(C2N=C(c3ccccc3)c3cc(Cl)ccc3N2C)cc1 (stereo not given)           MIC      12.5
2  N#CC(C#N)=NNc1cccc(Cl)c1 [CARBONYL CYANIDE M-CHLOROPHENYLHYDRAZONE]           MIC       3.1
3  c1ccc(C2=NC(c3ccccc3)Nc3ccccc32)cc1 (stereo not given)           MIC       3.1
4  COc1ccc(CCN(C)CCCC(C#N)(c2ccc(OC)c(OC)c2)C(C)C)cc1OC (stereo not given) [VERAPAMIL]           MIC       6.2
5  COc1ccc(C2N=C(c3ccccc3)c3ccccc3N2)cc1OC (stereo not given)           MIC       6.2
6  CN1c2ccc(Cl)cc2C(c2ccccc2)=NC1c1ccccc1 (stereo not given)           MIC      12.5
7  Brc1ccc(C2=NC(c3ccc(Br)cc3)Nc3ccccc32)cc1 (stereo not given)           MIC      12.5
8  CN1c2ccc(Cl)cc2C(c2ccccc2)=NC1c1ccc(Br)cc1 (stereo not given)           MIC       3.1

Problem: Recorded MIC of CN1c2ccc(Cl)cc2C(c2ccccc2)=NC1c1ccc([N+](=O)[O-])cc1 (stereo not given) , please.
Solution: 6.2

Problem: Recorded MIC of Fc1ccccc1C1=NC(c2ccco2)Nc2ccc(Cl)cc21 (stereo not given) , please.
Solution: 3.1
